- experimental_details: physchem
- measurement_parameters: pH 2.2, aqueous buffer, kinetic from dmso stock, Solubility (pH 2.2)
endpoint_name: solubility at 24 h (µg/mL)
Numbers only, in µg/mL.

molecule	endpoint_name	unit_info	quantitative_result
Cc1c(COc2ccccc2-c2cccc(N3CC[C@@]4(C(=O)O)C[C@H]4C3)n2)ccc2c1CCN(CC1COCCO1)C2 (stereo partly shown) [Compound 5]	solubility at 24 h	µg/mL	160
Cc1ccc(OCc2ccc3c(c2C)CCN(CC2COCCO2)CC3)c(-c2csc(N3CC[C@@]4(C(=O)O)C[C@H]4C3)n2)c1 (stereo partly shown) [Compound 132]	solubility at 24 h	µg/mL	110
CO[C@@H]1CN(c2cccc(-c3cccc(C)c3OCc3cc(C)c4c(c3)CCN(C3CCOCC3)CC4)n2)CC[C@@H]1C(=O)O [Compound 293]	solubility at 24 h	µg/mL	116
Cc1c(COc2ccccc2-c2cccc(N3CC[C@@]4(C(=O)O)C[C@H]4C3)n2)ccc2c1CCN(C1COC1)C2 [Compound 4]	solubility at 24 h	µg/mL	140

Please go through the list and note solubility at 24 h for each molecule.
1. COC[C@H]1N(c2cccc(-c3cccc(C)c3OCc3ccc4c(c3C)CCN(C3CCOCC3)C4)n2)C[C@@H]2C[C@@]21C(=O)O [Compound 46]
2. Cc1c(COc2ccccc2-c2cccc(N3CC[C@@]4(C(=O)O)C[C@H]4C3)n2)ccc2c1CCNC2 [Compound 305]
3. CO[C@H]1CN(c2nc(-c3cccc(C)c3OCc3cc(C)c4c(c3)CCN(CC3COCCO3)C4)cs2)CC[C@H]1C(=O)O (stereo partly shown) [Compound 168]

1. 110
2. 108
3. 130
